The origin of these recorded values is PubChem BioAssay (NCI).

experiment: NCI Yeast Anticancer Drug Screen. Data for the rad50 strain (AID 155);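 also: 0% = growth of vehicle-only cultures of the same strain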; conditions: S. cerevisiae rad50 strain growth inhibition; at 50.0 µM; hits give high values
Compounds without any hit were thinned out: in the full panel of roughly 79,000, 15% have a hit. Calls of active or inactive are those of the source. Rule as the data show it: active = growth inhibition above about 70%; inactive = the rest.
measured.endpoint: growth inhibition

>>> df
                                    compound       assay_result
 0  CCOc1c(N=Nc2ccccc2C)c(-c2ccccc2)nn1C(N)=S   8.25% (inactive)
 1  O=c1c2cc(S(=O)(=O)Nc3ccc(Cl)cc3Cl)ccc2ncn1NS(=O)(=O)c1cccc2ccccc12   10.9% (inactive)
 2  CN(C(=O)C1(C(=O)C=[N+]=[N-])CC1)c1ccccc1   -3.8% (inactive)
 3            N#CC(C#N)=Cc1cccc(Oc2ccccc2)c1   57.1% (inactive)
 4  CSC(C1c2ccccc2N(C)C2=NC(=O)N(C)C(=O)C21Cl)S(=O)(=O)c1ccc(C)cc1 (configuration not stated)   50.2% (inactive)
 5  Cc1ccc(NC(=O)/C(Cc2nc3ccc([N+](=O)[O-])cc3[nH]c2=O)=N\NC(=O)C[n+]2ccccc2)c(C)c1   -7.5% (inactive)
 6  NNC(=S)N/N=C(/C(=O)Nc1cc(Cl)ccc1Cl)C1C(=O)Nc2ccccc2S1=O (configuration not stated)  -21.8% (inactive)
 7  CC(=O)NCC1CCCO1 (configuration not stated)   2.65% (inactive)
 8  CC(C)N(C(=O)C12C3C4C5C3C1(C#N)C5C42)C(C)C (configuration not stated)   10.1% (inactive)
 9  CN1CCN(CCSC(=O)C(O)(c2ccccc2)C2CCCC2)CC1 (configuration not stated)   17.1% (inactive)
10  Cc1ccc(N2[C@H]3CCCN3c3ccc(C)cc3[C@@H]2C(F)(F)F)cc1   16.3% (inactive)
11  COc1ccc(CC(N)C(=O)NC2C(CO)OC(n3cnc4c(N)ncnc43)C2O)cc1 (configuration not stated)   5.65% (inactive)
12  O=C1c2ccccc2OCC1/C=N/O (configuration not stated)    1.9% (inactive)
13  O=C1C(/C=N\C(=S)NCc2ccccc2)=C(O)c2ccccc21  -31.9% (inactive)
14  CC1N(/N=C/c2ccccc2)C(c2ccccc2)C(c2ccccc2)N1/N=C/c1ccccc1 (configuration not stated)   11.4% (inactive)
15  COc1ccc(/C=C2/C[N+](C)(C)C/C(=C/c3ccc(OC)cc3)C2=O)cc1   10.3% (inactive)
16  O=C1S/C(=C2\C(=O)N(CN3CCCCC3)c3ccc(Br)cc32)C(=O)N1CN1CCCCC1   37.4% (inactive)
17           Nc1nc(Cl)cc(Nc2ccc3c(c2)CCC3)n1   15.2% (inactive)
18                   O=NNc1ccc(Sc2ccccc2)cn1    6.8% (inactive)
19  CCOC(=O)c1ccc(N(CC(O)CN)S(=O)(=O)c2ccc(C)cc2)cc1 (configuration not stated)    5.7% (inactive)
20  CCCCC1=C(C)C/C(=N/Nc2ccc([N+](=O)[O-])cc2[N+](=O)[O-])C(C)C1CCCC (configuration not stated)    3.7% (inactive)
21  C=CCN1C(N)=C(C#N)C(C#N)(C#N)C1CCC (configuration not stated)    1.2% (inactive)
